Target: human CYP11B1 (Homo sapiens, UniProt P15538)
Sequence (P15538 25-503): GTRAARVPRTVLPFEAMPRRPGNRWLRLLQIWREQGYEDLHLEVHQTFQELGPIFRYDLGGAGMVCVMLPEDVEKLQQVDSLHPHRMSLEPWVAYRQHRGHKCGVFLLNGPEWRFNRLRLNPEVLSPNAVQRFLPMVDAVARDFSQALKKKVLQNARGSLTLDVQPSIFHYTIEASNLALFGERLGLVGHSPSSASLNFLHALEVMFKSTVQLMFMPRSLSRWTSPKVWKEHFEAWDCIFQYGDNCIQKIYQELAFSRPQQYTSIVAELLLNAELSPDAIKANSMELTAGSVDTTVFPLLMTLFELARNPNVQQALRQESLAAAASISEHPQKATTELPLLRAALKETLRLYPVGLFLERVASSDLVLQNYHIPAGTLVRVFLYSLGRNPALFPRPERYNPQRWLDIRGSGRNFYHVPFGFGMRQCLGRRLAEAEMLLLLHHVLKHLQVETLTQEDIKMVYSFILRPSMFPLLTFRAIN
Assay: G-402 cellular enzyme assay, human CYP11B1 (cortisol release, HTRF)
Settings: G-402 cells expressing human CYP11B1; 1 μM Deoxycortisol; 16 h
pEC50: −log10 of the molar value.
Reported metric: pEC50

Cn1cncc1C(=O)c1cccc(Cl)c1 [Example 22]    6.27
Cn1cncc1C(=O)c1cccc(C#N)c1 [Example 21]    5.06
N#Cc1ccc(-n2cncc2C(=O)c2ccc(Cl)cc2)cc1Cl [Example 77]    8.01
CC(C)n1cncc1C(=O)c1ccc(F)c(C#N)c1 [Example 64]    6.35
CCn1cncc1C(=O)c1ccc(N(C)C(=O)OC(C)(C)C)cc1 [Example 88]    5.89
CCn1cncc1C(=O)c1ccc(Cl)c(F)c1 [Example 34]    7.48
CC(C)n1cncc1C(=O)c1ccc(C#N)cc1F [Example 10]    7.15
CC(C)n1cncc1C(=O)c1cccc(C#N)c1 [Example 57]    6.69

1: CC(C)n1cncc1C(=O)c1ccc(Cl)c(F)c1 [Example 39]
2: CC(=O)N(C)c1ccc(C(=O)c2cncn2C(C)C)cc1 [Example 59]
## Task Please compare: 1 and 2 . Report which one has the smaller pEC50 value. Lab log: write the label of the selected item as the result.
## Result 2
(2: 5.30, 1: 8.48)

* * *

Target: human CYP11B2 (Homo sapiens)
Construct: expressed in transfected cells
Test: G-402 cellular enzyme assay, human CYP11B2 (aldosterone release, HTRF)
Assay type: cell-based
Conditions: G-402 cells expressing human CYP11B2; 1 μM Deoxycorticosterone; 16 h
Reported metric: EC50 (nM)

Cn1cncc1C(=O)c1ccc(Cl)cc1Cl [Example 11]    216
Cn1cncc1C(=O)c1ccc(S(C)(=O)=O)cc1 [Example 47]    3530
CCn1cncc1C(=O)c1ccc(SC(F)(F)F)c(OC)c1 [Example 80]    12.9
CC(C)n1cncc1C(=O)c1ccc2c(c1)CCC(=O)N2C [Example 27]    6.9

A: CC(C)n1cncc1C(=O)c1ccc(Br)cc1 [Example 72]
B: CC(C)n1cncc1C(=O)c1ccc(C#N)cc1F [Example 10]
## Task Form field 'greater EC50' accepts A or B ; which applies? Lab log: write the label of the selected item as the result.
## Result B

* * *

Target: human CYP11B2 (Homo sapiens)
Assay: G-402 cellular enzyme assay, human CYP11B2 (aldosterone release, HTRF)
Conditions: G-402 cells expressing human CYP11B2; 1 μM Deoxycorticosterone; 16 h
pEC50: −log10 of the molar value.
Reported metric: pEC50

Cn1cncc1C(=O)c1ccc(F)cc1    7.31
CCn1cncc1C(=O)c1ccc(C(F)(F)F)cc1    7.23

P: CN1C(=O)CCc2cc(C(=O)c3cncn3C)ccc21
Q: CC(C)n1cncc1C(=O)c1ccc(C#N)c(Cl)c1
R: O=C(c1ccc(Cl)c(F)c1)c1cncn1C1CC1
S: CC(=O)N(C)c1ccc(C(=O)c2cncn2C)cc1
## Task Put these in order: smallest pEC50 first, largest last. The reply should contain the labels ordered as requested.
## Result S, P, R, Q
(S: 6.03, P: 7.11, R: 8.64, Q: 9.70)

* * *

Target: human CYP11B2 (Homo sapiens, UniProt P19099)
Sequence (P19099 25-503): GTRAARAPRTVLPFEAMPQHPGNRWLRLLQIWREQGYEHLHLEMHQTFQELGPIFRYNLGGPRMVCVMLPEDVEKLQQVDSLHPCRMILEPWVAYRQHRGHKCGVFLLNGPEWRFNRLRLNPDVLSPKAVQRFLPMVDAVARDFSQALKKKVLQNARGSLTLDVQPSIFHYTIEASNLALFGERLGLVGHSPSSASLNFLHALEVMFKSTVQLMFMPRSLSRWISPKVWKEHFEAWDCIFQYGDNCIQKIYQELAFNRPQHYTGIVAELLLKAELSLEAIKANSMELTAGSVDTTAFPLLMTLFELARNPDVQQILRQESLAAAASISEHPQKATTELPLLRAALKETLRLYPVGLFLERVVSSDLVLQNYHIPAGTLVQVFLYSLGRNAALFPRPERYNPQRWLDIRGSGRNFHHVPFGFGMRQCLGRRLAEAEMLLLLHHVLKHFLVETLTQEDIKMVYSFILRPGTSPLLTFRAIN
Assay: G-402 cellular enzyme assay, human CYP11B2 (aldosterone release, HTRF)
Details: G-402 cells expressing human CYP11B2; 1 μM Deoxycorticosterone; 16 h
Description: Herein we identified the use of the G-402 cell line as a host cell to ectopically express (transiently or stably) enzymes of the CYP11 family. […] Importantly, the identified cell line G-402 expresses co-factors (adrenodoxin and adrenodoxin reductase) important for the activity of the CYP11 family, and no relevant enzyme activity of the CYP11 family (in comparison to H295R cells) was detected in these cells. […]
Reported metric: EC50 (nM)

N#Cc1cccc(C(=O)c2cncn2C2CC2)c1 [Example 58]    87.2
N#Cc1ccc(-n2cncc2C(=O)c2ccc(Cl)cc2)cc1Cl [Example 77]    1.9

1: Cn1cncc1C(=O)c1ccc(Cl)c(F)c1 [Example 9]
2: COc1cc(C(=O)c2cncn2C)ccc1SC [Example 50]
3: CCn1cncc1C(=O)c1ccc(C#N)cc1 [Example 5]
4: CCSc1ccc(C(=O)c2cncn2CC)cc1 [Example 69]
## Task Put these in order: smallest EC50 first, largest last. The reply should contain the labels ordered as requested.
## Result 3, 1, 2, 4
(3: 2.6 nM, 1: 7.7 nM, 2: 14.8 nM, 4: 84.4 nM)
